Task for the reader: assign each of the following sequences its reported PET hydrolysis product formed.
- Test: PET hydrolysis product formed (TPA+MHET+BHET, UV-Vis) per mg enzyme (mmol/mg enzyme); higher = more PET depolymerisation activity; extreme values may be limits of the assay
- Condition Details: PET substrate: cryPow; 60 °C; pH 7.5; 24 h

These recorded examples may help you get a feel for the data.
Construct Sequence: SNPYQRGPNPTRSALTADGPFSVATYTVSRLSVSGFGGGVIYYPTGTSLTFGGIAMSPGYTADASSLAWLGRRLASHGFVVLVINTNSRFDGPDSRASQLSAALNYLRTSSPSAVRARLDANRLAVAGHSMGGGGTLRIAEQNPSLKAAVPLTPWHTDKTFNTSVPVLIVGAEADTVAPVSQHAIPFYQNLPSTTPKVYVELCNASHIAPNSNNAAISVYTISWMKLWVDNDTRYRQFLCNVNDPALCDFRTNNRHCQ [LCC-ICCG]
Measure: PET hydrolysis product formed
Obs Value: 0.184
--
Construct Sequence: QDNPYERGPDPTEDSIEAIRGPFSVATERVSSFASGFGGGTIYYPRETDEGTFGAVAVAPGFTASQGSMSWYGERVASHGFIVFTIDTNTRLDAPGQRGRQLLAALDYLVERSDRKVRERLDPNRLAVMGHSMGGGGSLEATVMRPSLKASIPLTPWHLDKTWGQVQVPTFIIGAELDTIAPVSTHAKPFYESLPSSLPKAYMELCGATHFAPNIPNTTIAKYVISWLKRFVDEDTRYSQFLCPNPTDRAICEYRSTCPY [Cut190*SS]
Measure: PET hydrolysis product formed
Obs Value: 0.0968

Now, please, on to the next sequence.
Prompt: Can you look up the measured PET hydrolysis product formed of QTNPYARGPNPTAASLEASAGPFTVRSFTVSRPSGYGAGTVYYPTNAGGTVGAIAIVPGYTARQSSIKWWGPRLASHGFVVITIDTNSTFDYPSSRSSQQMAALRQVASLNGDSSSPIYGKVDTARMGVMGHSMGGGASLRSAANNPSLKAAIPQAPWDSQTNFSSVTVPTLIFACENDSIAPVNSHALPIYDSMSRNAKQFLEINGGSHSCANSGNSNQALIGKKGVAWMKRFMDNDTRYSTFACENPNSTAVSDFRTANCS [DuraPETase] for me?
Completion: 0.0809
